Recorded measurements of GI50, one per entry
test system: M14; assay: NCI tumour cell line growth inhibition, 48 h
The source made the active and inactive calls. Rule as the data show it: active = GI50 up to about 1.1 µM and inactive = higher.

MOLECULE	GI50
CCN(CC)CC(=O)Nc1c(C(N)=O)nnn1Cc1cc(Cl)c(C(=O)c2ccc(Cl)cc2)c(Cl)c1	16.9 µM (inactive)
O=C(Cn1c(C(=O)c2ccccc2)nc2ccccc21)c1ccccc1	> 100 µM (inactive)
CC1=CC(=O)/C(=C/N2C(=O)CNC2=S)C(=O)O1	> 100 µM (inactive)
COc1cc(/C=C/C(=N\NS(=O)(=O)c2ccc(C)cc2)c2sc(NNC(C)=O)nc2C)ccc1O	> 100 µM (inactive)
COc1cc([C@H]2Oc3c(c(O)cc4oc(-c5ccccc5)cc(=O)c34)O[C@@H]2CO)ccc1O	17.5 µM (inactive)
Nc1ccc2c(c1)Cc1ccccc1-2	> 100 µM (inactive)
COc1cc(C(=O)NNC(=O)c2cc(Br)ccc2NC(=O)c2cccs2)cc(OC)c1OC	19.3 µM (inactive)
CN(C)CCNCc1ccc2c(-c3ccccc3)nc3cc(Cl)c(Cl)cc3n12	8.13 µM (inactive)
CC[C@@]1(O)C(=O)OCc2c1cc1n(c2=O)Cc2cc3cc(O)ccc3nc2-1 [HYDROXYCAMPTOTHECIN]	0.0336 µM (active)
COc1cccc(NC(=O)CC(=O)N2NC(C)C(/N=N/c3cccc(C(=O)O)c3)C2=O)c1 (stereo unspecified)	> 100 µM (inactive)
CC1(C)OCC2(CO1)CSCCCSCC1(COC(C)(C)OC1)CSCCCSC2	> 100 µM (inactive)
O=[PH](O)c1cc2ccccc2c2ccccc12	> 100 µM (inactive)
O=c1c2cc3c(=O)n4c(cc(-c5ccccc5)c5cc(Cl)ccc54)nc3cc2nc2cc(-c3ccccc3)c3cc(Cl)ccc3n12	> 100 µM (inactive)
CC(=O)OC(CC1(C)C(C)CCC23COC(=O)C2=CCCC31)c1ccoc1 (stereo unspecified)	16.3 µM (inactive)
NNS(=O)(=O)c1cc(C(=O)O)cc(C(=O)O)c1	> 100 µM (inactive)
Cc1cccc(C)c1NC(=O)C1C(=O)N(c2c(C)cccc2C)C(=O)/C1=N\N (stereo unspecified)	> 100 µM (inactive)
OC(CC1SCCCS1)c1ccccc1 (stereo unspecified)	> 100 µM (inactive)
COc1cccc(CCn2c(N)c(C(=O)O)c3ccc([N+](=O)[O-])cc3c2=O)c1	45.3 µM (inactive)
C/C=C1/CN2[C@@H](C3=C[C@@H]4[C@@H]5N(C3=O)c3ccccc3[C@@]53CCN5C/C(=C/C)[C@@H]4C[C@H]53)C[C@@]34c5ccccc5N5C(=O)CC=C([C@H]1C[C@H]23)[C@H]54 [ISOSUNGUCINE]	1.18 µM (inactive)
O=[N+]([O-])c1ccc(/C(Cl)=C/c2ccc(/C=C(\Cl)c3ccc([N+](=O)[O-])cc3[N+](=O)[O-])cc2)c([N+](=O)[O-])c1	> 100 µM (inactive)
CC(=O)NC1CONC1=O (stereo unspecified)	> 100 µM (inactive)
Cc1c(C(=O)Nc2ccccc2)nnn1-c1ccnc2cc(C(F)(F)F)ccc12	41.9 µM (inactive)
CC(NC(=O)C(NC(=O)CNC(=O)OC(C)(C)C)C(C)C)C(=O)Oc1c(Cl)c(Cl)c(Cl)c(Cl)c1Cl (stereo unspecified)	18.8 µM (inactive)
COc1ccccc1NC(=O)CC(=O)N1N=C(c2ccccc2)C(/N=N/c2ccc(Cl)cc2)C1=O (stereo unspecified)	59.8 µM (inactive)
COC(=O)c1c(O)ccc2c1c1cc3ccccc3c(O)c1n2Cc1ccccc1Cl	23.4 µM (inactive)
CCN(CC)c1ccc2cc(-c3csc(-c4ccc(N(C)C)cc4)n3)c(=O)oc2c1	> 100 µM (inactive)
COc1cc2ccc3ccncc3c2cc1OC	> 10 µM (inactive)
Cc1cc(OCC(O)CO)ccc1Cl (stereo unspecified)	> 100 µM (inactive)
COc1ccc(/C(=N\Nc2ccccn2)c2ccccn2)cc1	< 0.01 µM (active)
CC1(C)CC2C(C1=O)C1(C)CCCC2(C)C1=O (stereo unspecified)	> 100 µM (inactive)
CCOC(=O)C1(C(=O)OCC)C(C(C)(C)C)=C(C)c2ccccc21	16.1 µM (inactive)
Cc1ccc(S(=O)(=O)CNC(=O)C(O)(O)C(F)(F)F)cc1	> 100 µM (inactive)
COc1ccc(NC(=O)CC/C(CC(=O)C(C)(C)C)=N\NC(=O)C(=O)NN)cc1	> 100 µM (inactive)
O=c1[nH]cnc2c(COCCO)c[nH]c12	> 100 µM (inactive)
CC(C)NCCCC(C)Nc1ccnc2ccc3nn(C)nc3c12 (stereo unspecified)	38.8 µM (inactive)
Cc1ccc(S(=O)(=O)N2CC2CCCCC=O)cc1 (stereo unspecified)	51.3 µM (inactive)
[N-]=[N+]=Nc1c(Cl)c(Cl)nc2ccccc12	> 100 µM (inactive)
C/C(=N\Nc1nc2ccccc2o1)c1cc2ccccc2cn1	< 0.01 µM (active)
N=C(N)Nc1nc2cc([N+](=O)[O-])ccc2[nH]1	> 100 µM (inactive)
COc1cc(C2C=C(c3ccccc3)Oc3cc4c(cc32)OCO4)cc(OC)c1OC (stereo unspecified)	0.35 µM (active)
COc1cccc2nc3c(C(=O)NCCN(C)C)cccc3nc12	13.4 µM (inactive)
